Where do the numbers come from? From ChEMBL document CHEMBL3997852.

tested on: Mycobacterium tuberculosis; assay: Antitubercular activity against Mycobacterium tuberculosis H37Rv after 7 days by microplate alamar blue assay; assay type: functional; conditions: 168 h
Form field: MIC90 (one value per entry).
Entry rule: numbers only, all in µg/mL.

{"Compound Structure String": "CC(=O)NC[C@@H]1OC(=O)N2c3cc(F)c(C4=CCN(C(=O)[C@@H](O)CO)CC4)cc3OC[C@@H]12", "Recorded Number": 0.483}
{"Compound Structure String": "CC(=O)NC[C@@H]1OC(=O)N2c3cc(F)c(C4=CCN(C(=O)C5CC5)CC4)cc3OC[C@@H]12", "Recorded Number": 6.4}
{"Compound Structure String": "CC(=O)NC[C@@H]1OC(=O)N2c3cc(F)c(C4CCN(C(=O)CO)CC4)cc3OC[C@@H]12", "Recorded Number": 3.81}

Query block: MIC90 lookup needed for O=C(NC[C@@H]1OC(=O)N2c3cc(F)c(C4=CCN(CCO)CC4)cc3OC[C@@H]12)C1CCC1 , thanks.
Result block: 1.1

Query block: Give its MIC90 value. Item: O=C(NC[C@@H]1OC(=O)N2c3cc(F)c(C4=CCN(C(=O)CO)CC4)cc3OC[C@@H]12)C1CC1
Result block: 1.87

Query block: Given CC(=O)NC[C@@H]1OC(=O)N2c3cc(F)c(C4CCN(CCO)CC4)cc3OC[C@@H]12 , state its recorded MIC90.
Result block: 14.6
